Just for reference, patent US20230130403A1 is where these values come from.

assay: Plasma protein binding; assay type: in vitro ADME; settings: human plasma

{"molecule": "NC(CO)(CO)CCc1ccc(Sc2cccc(OCc3ccccc3)c2)cc1Cl [[14C]KRP203]", "fraction unbound": "< 0.01"}

---

test: Repeat-dose toxicity studies in mice; conditions: in vivo; 13-week mouse study, 20 mg/kg; read-out: systemic exposure (AUC0-24 h)

{"molecule": "NC(CO)(CO)CCc1ccc(Sc2cccc(OCc3ccccc3)c2)cc1Cl [KRP203]", "AUC0-24": "~7250 ng·h/mL"}
